FYI, the data here is from the supplement of paper PMC10065799.

System Under Test: MERTK (UniProt Q12866)
Sequence (Q12866 whole entry, looked up): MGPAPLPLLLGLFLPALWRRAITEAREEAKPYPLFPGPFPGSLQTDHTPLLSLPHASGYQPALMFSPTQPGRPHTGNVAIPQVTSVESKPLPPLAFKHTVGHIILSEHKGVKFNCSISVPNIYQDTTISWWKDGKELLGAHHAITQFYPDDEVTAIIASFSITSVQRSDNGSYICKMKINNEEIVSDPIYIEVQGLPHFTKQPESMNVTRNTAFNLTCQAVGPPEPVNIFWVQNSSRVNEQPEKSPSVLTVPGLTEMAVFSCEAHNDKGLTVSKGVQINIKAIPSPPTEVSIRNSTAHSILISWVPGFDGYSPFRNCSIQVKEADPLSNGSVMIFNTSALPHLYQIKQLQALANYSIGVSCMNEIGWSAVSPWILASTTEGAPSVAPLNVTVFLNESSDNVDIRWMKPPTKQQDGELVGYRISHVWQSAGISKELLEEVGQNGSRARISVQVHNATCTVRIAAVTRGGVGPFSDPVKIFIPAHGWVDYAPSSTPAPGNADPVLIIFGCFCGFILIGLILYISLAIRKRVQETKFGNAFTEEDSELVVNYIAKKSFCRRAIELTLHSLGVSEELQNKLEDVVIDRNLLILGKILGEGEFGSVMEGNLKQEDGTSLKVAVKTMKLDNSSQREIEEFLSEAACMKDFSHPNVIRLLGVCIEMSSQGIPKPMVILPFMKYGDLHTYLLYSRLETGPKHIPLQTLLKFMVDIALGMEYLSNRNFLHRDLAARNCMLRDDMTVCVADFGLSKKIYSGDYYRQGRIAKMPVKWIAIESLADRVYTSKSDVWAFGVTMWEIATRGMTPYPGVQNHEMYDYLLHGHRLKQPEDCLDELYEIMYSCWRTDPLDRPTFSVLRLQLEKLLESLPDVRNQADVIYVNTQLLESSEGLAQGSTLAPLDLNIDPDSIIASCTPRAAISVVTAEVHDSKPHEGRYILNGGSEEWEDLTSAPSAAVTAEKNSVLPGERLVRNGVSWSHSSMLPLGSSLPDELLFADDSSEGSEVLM
Test Summary: phosphorylation enrichment, bacterial display (enrichment ratio); higher = better substrate or ligand; peptides without Tyr show the background;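 note: 11-residue human phosphosite peptides and single-mutation variants displayed on the E. coli surface, counted by deep sequencing, each peptide's frequency after selection divided by its frequency in the unselected input library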;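 note: frequency after pTyr selection over input frequency; kinase dosed for 20-30% of maximal phosphorylation in three min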
Kindly return True if reported phosphorylation enrichment is no lower than 0.6; return False if it is lower.

For this sequence, is measured phosphorylation enrichment 0.6 or higher? EEGESHVCSSD [DCX_Y125_Y125H]
False

Given AAVDEYLEYRR [FAM221A_Y17] , state whether its phosphorylation enrichment is at least 0.6.
False

Evaluate RRNVYYYSYLL [PTEN_Y177_Y174N] : phosphorylation enrichment at minimum 0.6?
True

Record DYTEAYNPKIK [CLK1_Y305] ; criterion: phosphorylation enrichment no lower than 0.6. Met?
False

Identify whether the reported phosphorylation enrichment of the following sequence is 0.6 or greater: EEETDYTPVWC [UROD_Y30_G25E]
False

Is phosphorylation enrichment for GDFLSYREFHL [ERBIN_Y1107_S1112L_YF] at or above 0.6?
False

Does IMVFVYCRVFQ [ADRB2_Y219_S220C] have a reported phosphorylation enrichment of at least 0.6?
False

Check the entry DENWFYTRAAS [RPS19_Y54] : does phosphorylation enrichment equal or exceed 0.6?
False

Hi team, for SVTCTYSPALY [TP53_Y126_N131Y] , is the recorded phosphorylation enrichment at or above 0.6?
False

Determine whether this sequence has phosphorylation enrichment no lower than 0.6: TKDTFYKQPMV [GBA_Y451_F456V]
False

Given the entry YEKFLYFLPAS [DYNC2H1_Y346_H341Y] , answer whether its phosphorylation enrichment meets or surpasses 0.6.
True

Dear colleague, could you confirm whether KLKRSYSSRDI [USP8_Y717_P720R] has phosphorylation enrichment at or above 0.6?
False

Form field: phosphorylation enrichment at least 0.6? Entry: SGGGLYRDMGA [CBX8_Y321]
False

Determine whether this sequence has phosphorylation enrichment no lower than 0.6: HHTDEYEFDEL [TGM1_Y134_YF]
False

Item DSFATYFRWVL [H2BW1_Y84_R87W] with phosphorylation enrichment of 0.6 or above?
True

// inclusive: phosphorylation enrichment at least 0.6? input: LEQDEYALRSH [HADHB_Y244]
True

API: above_or_equal(metric=phosphorylation enrichment, cutoff=0.6) for item SFVMVYEGNAR [INSR_Y1038_G1035V]
False

Textbook exercise: given the entry SVTCTDSPALN [TP53_Y126_Y126D] , state whether its phosphorylation enrichment is greater than or equal to 0.6.
False

Quick check: does HESEIYGKVCF [CSRP3_Y57_C58G_YF] have phosphorylation enrichment greater than or equal to 0.6?
True

For this sequence, is measured phosphorylation enrichment 0.6 or higher? ETRWNYHFEVV [GCNT3_Y267_K266N]
False

Hi team, for IATTIYSGDKI [UGGT2_Y823_A821T] , is the recorded phosphorylation enrichment at or above 0.6?
False

Check the entry IYETDYYQKGG [INSR_Y1189_R1191Q] : does phosphorylation enrichment equal or exceed 0.6?
True

hey, is phosphorylation enrichment for this one >= 0.6? DPNQQYYIAMD [TBX15_Y159_H156N]
True

Hello, I need to know if IWIFHYAKGQP [MPZ_Y82_S78W] has measured phosphorylation enrichment not below 0.6. Thanks!
False

Exam item: decide whether the reported phosphorylation enrichment for RRIHSYRSHLW [VHL_Y112_G114S] is at least 0.6.
True

Tell me whether phosphorylation enrichment is at least 0.6 here: HLAQRYLIWEC [SCN5A_Y694_R689H]
False

Hi, just wondering whether FGMQLYQKFMH [GRB14_Y347_N349K_YF] shows phosphorylation enrichment of 0.6 or higher.
True

Threshold query (phosphorylation enrichment >= 0.6) on GVFSRYFTTFD [CLCA1_Y661_YF]
False

Hello, I need to know if MVIPNYSSRTE [UROC1_Y185] has measured phosphorylation enrichment not below 0.6. Thanks!
False

Form field: phosphorylation enrichment at least 0.6? Entry: RFLRGYQQDAY [HLA-A_Y137_R138Q]
True

Has GIVKAYYVRAR [AIPL1_Y267] a recorded phosphorylation enrichment greater than or equal to 0.6?
False

API: above_or_equal(metric=phosphorylation enrichment, cutoff=0.6) for item MHLRQYELLGG [GNAS_Y391]
True

Does phosphorylation enrichment meet or surpass 0.6 for FAKTQYPDIFA [CRX_Y63_V66I_YF] ?
False

Is phosphorylation enrichment for RISGVYKLPPD [ANGPTL7_Y145] at or above 0.6?
True

Decide: is the reported value of phosphorylation enrichment for FRDALYKSMVD [PHEX_Y250_F252S_YF] equal to or greater than 0.6?
False

Assess whether reported phosphorylation enrichment for VNYGAYINDFN [GLB1_Y488_K493N] sits at 0.6 or higher.
False

Say whether KDFNKYVAYIE [KDM4B_Y31] shows phosphorylation enrichment of 0.6 or more.
False

Does phosphorylation enrichment meet or surpass 0.6 for DLRTGYSVPYG [TGM1_Y370_Y365D] ?
False

Hello, I need to know if AAAAMYTFLPD [MYORG_Y36] has measured phosphorylation enrichment not below 0.6. Thanks!
True

Determine whether measured phosphorylation enrichment meets or exceeds 0.6 for CSEETYRLMLQ [RET_Y981_M980T]
False

Exam item: decide whether the reported phosphorylation enrichment for RFLRGYRQHAF [HLA-A_Y137_D140H_YF] is at least 0.6.
True

Can GRPMDYQVSIT [OTOF_Y254] be said to have phosphorylation enrichment at or above 0.6?
False

I'd appreciate it if you could say whether PIPAAYNKFDQ [CDC73_Y290_R292K_YF] has phosphorylation enrichment at least equal to 0.6.
False

Could you verify whether the entry SKEPFYVRCIK [MYO1D_Y586_YF] shows phosphorylation enrichment of no less than 0.6?
False

Can HNQDDYSFPSR [LDLR_Y845_G844D_YF] be said to have phosphorylation enrichment at or above 0.6?
False
